Reference source: ChEMBL document CHEMBL5532698

# Test system: A2780
# Method summary: Antiproliferative activity against human A2780 cells assessed as cell growth inhibition at 25 uM incubated for 72 hrs by MTT assay relative to control
# Assay type: functional
Measured quantity: inhibition at 25 µM (%)
Write the answer as a number in %, unit excluded.

Example results:
Dear colleague, I am looking for the recorded inhibition at 25 µM of the following compound: O=C1NC(c2c[nH]c3ccccc23)Nc2ccccc21 (centres undefined)
94

Record: O=C1NC(/C=C/c2ccccc2[N+](=O)[O-])Nc2ccccc21 (centres undefined)
69

Record: O=C1NC(c2cccc(C(F)(F)F)c2)Nc2ccccc21 (centres undefined)
100

Record: O=C1NC(c2cccc(Br)c2)Nc2ccccc21 (centres undefined)
99

New cases:
Dear colleague, I am looking for the recorded inhibition at 25 µM of the following compound: O=C1NC(c2cccs2)Nc2ccccc21 (centres undefined)
98

Record: CCCCC1NC(=O)c2ccccc2N1 (centres undefined)
59

Record: COc1cccc(C2NC(=O)c3ccccc3N2)c1 (centres undefined)
100

Record: O=C1NC(C2CC=CCC2)Nc2ccccc21 (centres undefined)
99

Record: O=C1NC(c2ccccc2C(=O)O)Nc2ccccc21 (centres undefined)
48

Record: O=c1[nH]c(-c2ccc(Br)cc2)nc2ccccc12
83

Record: O=C1NC(c2ccccc2Br)Nc2ccccc21 (centres undefined)
96

Record: COc1ccc(/C=C/c2nc3ccccc3c(=O)[nH]2)cc1
66

Record: O=C(O)c1cccc(C2NC(=O)c3ccccc3N2)c1 (centres undefined)
10

Record: O=C1NC(c2cccc(O)c2)Nc2ccccc21 (centres undefined)
95

Record: O=C1NC(C2CCCCC2)Nc2ccccc21 (centres undefined)
41

Record: O=C1NC(c2cccc([N+](=O)[O-])c2)Nc2ccccc21 (centres undefined)
69

Record: O=C1NC(c2ccc([N+](=O)[O-])cc2)Nc2ccccc21 (centres undefined)
65

###

# System: BE(2)-C
# Method summary: Antiproliferative activity against human BE2C cells assessed as cell growth inhibition incubated for 72 hrs by MTT assay
# Type: functional
Measured quantity: log10 of GI50 (log10 of the value in µM)
// stored as log10 of GI50 expressed in µM

Example results:
Dear colleague, I am looking for the recorded log10 of GI50 of the following compound: N#Cc1ccc2[nH]cc(-c3nc4ccccc4c(=O)[nH]3)c2c1
0.53

Record: O=C1NC(c2cccs2)Nc2ccccc21 (configuration not stated)
0.97

Record: COc1cccc(C2NC(=O)c3ccccc3N2)c1 (configuration not stated)
0.36

New cases:
Dear colleague, I am looking for the recorded log10 of GI50 of the following compound: Cc1ccc(/C=C/c2nc(O)c3ccccc3n2)cc1
0.56

Record: O=C1NC(c2cccc3ccccc23)Nc2ccccc21 (configuration not stated)
-1.57

Record: O=C1NC(c2cccc(O)c2)Nc2ccccc21 (configuration not stated)
0.81

Record: O=c1[nH]c(/C=C/c2ccc(Br)cc2)nc2ccccc12
0.81

###

Here, each record is paired with measured inhibition at 25 µM data.
# Tested on: BE(2)-C
# Method summary: Antiproliferative activity against human BE2C cells assessed as cell growth inhibition at 25 uM incubated for 72 hrs by MTT assay relative to control
# Type: functional
Write the answer as a number in %, unit excluded.

Example results:
Dear colleague, I am looking for the recorded inhibition at 25 µM of the following compound: O=c1[nH]c(-c2ccc(Br)cc2)nc2ccccc12
77

Record: CCCCCCCCC1NC(=O)c2ccccc2N1 (stereo not drawn)
85

Record: O=C1NC(c2ccc([N+](=O)[O-])cc2)Nc2ccccc21 (stereo not drawn)
53

Record: O=C1NC(c2cccs2)Nc2ccccc21 (stereo not drawn)
91

Record: COc1ccc(/C=C/c2nc3ccccc3c(=O)[nH]2)cc1
66

Record: O=C(O)c1cccc(C2NC(=O)c3ccccc3N2)c1 (stereo not drawn)
12

Record: COc1cccc(/C=C/c2nc3ccccc3c(=O)[nH]2)c1
99

Record: O=C1NC(c2ccc(Br)o2)Nc2ccccc21 (stereo not drawn)
20

Record: N#Cc1cccc(C2NC(=O)c3ccccc3N2)c1 (stereo not drawn)
20

Record: Cc1ccc(/C=C/c2nc(O)c3ccccc3n2)cc1
82

New cases:
Dear colleague, I am looking for the recorded inhibition at 25 µM of the following compound: O=C1NC(c2c[nH]c3ccccc23)Nc2ccccc21 (stereo not drawn)
89

Record: O=C1NC(CCc2ccccc2)Nc2ccccc21 (stereo not drawn)
19

Record: O=C1NC(c2ccccc2C(=O)O)Nc2ccccc21 (stereo not drawn)
19

Record: O=C1NC(c2cc(O)c(O)c(O)c2)Nc2ccccc21 (stereo not drawn)
27
